Collected %Inh values appear next to each entry.
# System: PDGFRA;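 also: KINOMEscan kinase panel screen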
# Settings: concentration: 1 μM,replicates: in singlicate; n = 1
Quantity Name: %Inh (%)

{"columns": ["Smiles String", "Target", "Quantity Name", "Unit Symbol", "Obs Value"],
 "data": [
  ["Cl.Oc1cc(-c2nc(-c3ccccc3)[nH]c2-c2ccncc2)ccc1Cl", "PDGFRA", "%Inh", "%", 0],
  ["CCn1c(-c2nonc2N)nc2c(C#CC(C)(C)O)nc(OCCN)cc21.Cl.Cl", "PDGFRA", "%Inh", "%", 0],
  ["C[C@H]1Oc2cc(cnc2N)-c2c(nn(C)c2C#N)CN(C)C(=O)c2ccc(F)cc21", "PDGFRA", "%Inh", "%", 0],
  ["Cc1cc(C(=O)Nc2ccc(Oc3ccc4nc(NC(=O)C5CC5)cn4n3)cc2)nn1-c1ccccc1", "PDGFRA", "%Inh", "%", 97.7],
  ["Cc1n[nH]c2ccc(-c3cc(OC[C@@H](N)Cc4ccccc4)cnc3-c3ccoc3)cc12.O=C(O)C(F)(F)F.O=C(O)C(F)(F)F", "PDGFRA", "%Inh", "%", 0],
  ["CCN(CC)CCOc1ccc(Nc2ncc3cc(-c4c(Cl)cccc4Cl)c(=O)n(C)c3n2)cc1", "PDGFRA", "%Inh", "%", 99.8],
  ["CC(C)N1C(=O)Cc2cc(Nc3ncc(C(F)(F)F)c(NCc4cccc(S(C)(=O)=O)c4)n3)ccc21", "PDGFRA", "%Inh", "%", 36],
  ["Cc1occc1-c1nc(N)c(OC[C@@H](N)Cc2c[nH]c3ccccc23)cc1-c1cc2c(C)n[nH]c2cn1", "PDGFRA", "%Inh", "%", 0],
  ["Cl.Cl.NC[C@H](Cc1ccc(C(F)(F)F)cc1)NC(=O)c1cc(Br)c(-c2ccnc3[nH]ccc23)s1", "PDGFRA", "%Inh", "%", 28],
  ["COc1ccc(C[C@@H](CN)NC(=O)c2cc(Br)c(-c3ccnc4[nH]ccc34)s2)cc1.Cl.Cl", "PDGFRA", "%Inh", "%", 62],
  ["Cl.Cl.NC[C@H](CC1CCCCC1)NC(=O)c1cc(Br)c(-c2ccnc3[nH]ccc23)s1", "PDGFRA", "%Inh", "%", 22],
  ["O=C(NCCNc1ccnc(NCc2ccc(F)cc2)n1)c1cc2ccccc2s1", "PDGFRA", "%Inh", "%", 0],
  ["CNC(=O)c1ccccc1Sc1ccc2c(/C=C/c3ccccn3)n[nH]c2c1", "PDGFRA", "%Inh", "%", 99.9]
]}

Each recorded value in this set is attributed to paper PMC5540273.
